Items are presented alongside their recorded Kd.
- tested.on: FimH lectin domain (Escherichia coli, UniProt P08191)
- Sequence (P08191 22-179 limits assumed): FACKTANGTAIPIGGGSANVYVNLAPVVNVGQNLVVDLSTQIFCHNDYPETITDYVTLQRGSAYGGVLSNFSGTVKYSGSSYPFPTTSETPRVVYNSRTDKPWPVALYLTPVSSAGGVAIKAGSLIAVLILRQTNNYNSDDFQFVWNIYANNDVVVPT
- run.description: biochemical
- Type: binding, E. coli strain J96
- experimental.conditions: Kd SPR (nM), solution affinity by SPR competition; Tables 1-3
Lab book: enter the figure in nM, no units written.

OC[C@H]1O[C@H](OC/C=C/c2ccccc2)[C@@H](O)[C@@H](O)[C@@H]1O; 53
CCCSCCCO[C@H]1O[C@H](CO)[C@@H](O)[C@H](O)[C@@H]1O; 14
OC[C@H]1O[C@H](OCC#Cc2cccnc2)[C@@H](O)[C@@H](O)[C@@H]1O; 83

Proceed to the following item.
State the recorded Kd for this entry: CCSCCCO[C@H]1O[C@H](CO)[C@@H](O)[C@H](O)[C@@H]1O 14

---

- tested.on: FimH lectin domain (Escherichia coli)
- run.description: biochemical
- Format: binding, E. coli strain J96
- experimental.conditions: Table S2
metric: Kd SPR (nM)

OC[C@H]1O[C@H](C/C=C/c2cccc3ccccc23)[C@@H](O)[C@@H](O)[C@@H]1O [Compound 118]; nf
OC[C@H]1O[C@H](CCCc2ccc(-c3ccccc3)cc2)[C@@H](O)[C@@H](O)[C@@H]1O [Compound 120]; nf
COCC#Cc1ccc(O[C@H]2O[C@H](CO)[C@@H](O)[C@H](O)[C@@H]2O)cc1 [Compound 62]; nf
OC[C@H]1O[C@H](CCCc2cccc3ccccc23)[C@@H](O)[C@@H](O)[C@@H]1O [Compound 122]; nf

---

- tested.on: FimH lectin domain (Escherichia coli)
- run.description: biochemical
- Format: binding, E. coli strain J96
- experimental.conditions: Kd (nM), Table 4, SPR detection; sulfonamide and amide spacers
metric: Kd (nM)
Lab book: enter the figure in nM, no units written.

O=S(=O)(NCCO[C@H]1O[C@H](CO)[C@@H](O)[C@H](O)[C@@H]1O)c1ccccc1; 146
Cc1ccc(S(=O)(=O)NCCO[C@H]2O[C@H](CO)[C@@H](O)[C@H](O)[C@@H]2O)cc1; 168
O=C(C[C@H]1O[C@H](CO)[C@@H](O)[C@H](O)[C@@H]1O)Nc1ccc(O)cc1; 328

State the recorded Kd for this entry: O=C(C[C@H]1O[C@H](CO)[C@@H](O)[C@H](O)[C@@H]1O)NCCc1ccc(O)cc1 970

State the recorded Kd for this entry: O=S(=O)(NCCO[C@H]1O[C@H](CO)[C@@H](O)[C@H](O)[C@@H]1O)c1cccc2ccccc12 148

State the recorded Kd for this entry: CC(C)(C)c1ccc(S(=O)(=O)NCCO[C@H]2O[C@H](CO)[C@@H](O)[C@H](O)[C@@H]2O)cc1 122

State the recorded Kd for this entry: CC(=O)Nc1ccc(NC(=O)C[C@H]2O[C@H](CO)[C@@H](O)[C@H](O)[C@@H]2O)cc1 227

State the recorded Kd for this entry: O=C(C[C@H]1O[C@H](CO)[C@@H](O)[C@H](O)[C@@H]1O)Nc1ccccc1 372

---

- tested.on: FimH lectin domain (Escherichia coli, UniProt P08191)
- run.description: biochemical
- Assay type: binding, E. coli strain J96
- experimental.conditions: Kd SPR (nM), solution affinity by SPR competition; Tables 1-3
Items are presented alongside their recorded Kd.
Lab book: enter the figure in nM, no units written.

Example entries and their recorded answers appear below.
CCCCSCCC[C@H]1O[C@H](CO)[C@@H](O)[C@H](O)[C@@H]1O; 22
CC(C)SCCCO[C@H]1O[C@H](CO)[C@@H](O)[C@H](O)[C@@H]1O; 11
C#CCO[C@H]1O[C@H](CO)[C@@H](O)[C@H](O)[C@@H]1O; 490
OC[C@H]1O[C@H](OCC#Cc2ccccc2)[C@@H](O)[C@@H](O)[C@@H]1O; 168
OC[C@H]1O[C@H](OCCCc2cccc3ccccc23)[C@@H](O)[C@@H](O)[C@@H]1O; 22

Lookup: Kd / FimH lectin domain (Escherichia coli, UniProt P08191) / OC[C@H]1O[C@H](OC/C=C/c2ccccc2-c2ccccc2)[C@@H](O)[C@@H](O)[C@@H]1O 4.3

Lookup: Kd / FimH lectin domain (Escherichia coli, UniProt P08191) / OC[C@H]1O[C@H](OCC#Cc2ccccc2-c2ccccc2)[C@@H](O)[C@@H](O)[C@@H]1O 2250

Lookup: Kd / FimH lectin domain (Escherichia coli, UniProt P08191) / OC[C@H]1O[C@H](OC/C=C/c2cccc3ccccc23)[C@@H](O)[C@@H](O)[C@@H]1O 5
